Biological target: human Cot/Tpl2 kinase (Homo sapiens)
Construct: human Cot/Tpl2 kinase construct encoding residues 30-398; 6His (N); made in house; host or cells: Sf9 insect cells, baculovirus system (BD Biosciences)
Sequence (P41279 30-398): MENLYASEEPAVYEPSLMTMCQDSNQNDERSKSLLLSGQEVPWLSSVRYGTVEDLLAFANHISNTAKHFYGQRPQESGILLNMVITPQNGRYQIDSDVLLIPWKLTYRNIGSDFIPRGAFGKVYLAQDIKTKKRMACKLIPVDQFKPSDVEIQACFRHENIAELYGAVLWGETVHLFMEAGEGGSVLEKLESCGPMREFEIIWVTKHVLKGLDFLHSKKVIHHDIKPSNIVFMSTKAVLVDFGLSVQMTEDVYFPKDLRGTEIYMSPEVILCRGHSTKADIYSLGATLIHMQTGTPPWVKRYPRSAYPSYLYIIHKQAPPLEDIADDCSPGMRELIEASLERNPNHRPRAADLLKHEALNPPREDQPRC
Experiment: Tpl2/Cot kinase assay: GST-MEK1 phosphorylation detected by ELISA (DELFIA Eu)
Format: biochemical
Conditions: Tpl2/Cot kinase, GST-MEK1 substrate, 50 uM ATP, 1 h at 30° C.; Table 2
quantity_kind: IC50 (nM)

Worked examples, 3 compounds total:
molecular_string=CC(=O)N1CCN(CCn2cc(CNc3cc(Cl)c4ncc(C#N)c(Nc5ccc(F)c(Cl)c5)c4c3)nn2)CC1 tested_system="human Cot/Tpl2 kinase (Homo sapiens)" endpoint_unit=nM measured=92
molecular_string=N#Cc1cnc2c(Cl)cc(NCc3cncc(Br)c3)cc2c1Nc1ccc(F)c(Cl)c1 tested_system="human Cot/Tpl2 kinase (Homo sapiens)" endpoint_unit=nM measured=470
molecular_string=CC(C)(C)OC(=O)N1CCC(n2cc(CNc3cc(Cl)c4ncc(C#N)c(Nc5ccc(F)c(Cl)c5)c4c3)nn2)CC1 tested_system="human Cot/Tpl2 kinase (Homo sapiens)" endpoint_unit=nM measured=73

a: CN(C)C(=O)N1CCC(n2cc(CNc3cc(Cl)c4ncc(C#N)c(Nc5ccc(F)c(Cl)c5)c4c3)nn2)CC1
b: N#Cc1cnc2c(Cl)cc(OCc3cn(C4CCNCC4)nn3)cc2c1Nc1ccc(F)c(Cl)c1
Input line: Sorting by IC50 in descending order, would a or b appear first? # reply format: chosen label
Output line: b
(b: 150 nM, a: 7 nM)

The reported numbers originate from patent US20060264460A1.
